Please go through the items and note down their pIC50.
- targetEntity: Acetylcholinesterase (Homo sapiens)
- Sequence (P22303 whole entry): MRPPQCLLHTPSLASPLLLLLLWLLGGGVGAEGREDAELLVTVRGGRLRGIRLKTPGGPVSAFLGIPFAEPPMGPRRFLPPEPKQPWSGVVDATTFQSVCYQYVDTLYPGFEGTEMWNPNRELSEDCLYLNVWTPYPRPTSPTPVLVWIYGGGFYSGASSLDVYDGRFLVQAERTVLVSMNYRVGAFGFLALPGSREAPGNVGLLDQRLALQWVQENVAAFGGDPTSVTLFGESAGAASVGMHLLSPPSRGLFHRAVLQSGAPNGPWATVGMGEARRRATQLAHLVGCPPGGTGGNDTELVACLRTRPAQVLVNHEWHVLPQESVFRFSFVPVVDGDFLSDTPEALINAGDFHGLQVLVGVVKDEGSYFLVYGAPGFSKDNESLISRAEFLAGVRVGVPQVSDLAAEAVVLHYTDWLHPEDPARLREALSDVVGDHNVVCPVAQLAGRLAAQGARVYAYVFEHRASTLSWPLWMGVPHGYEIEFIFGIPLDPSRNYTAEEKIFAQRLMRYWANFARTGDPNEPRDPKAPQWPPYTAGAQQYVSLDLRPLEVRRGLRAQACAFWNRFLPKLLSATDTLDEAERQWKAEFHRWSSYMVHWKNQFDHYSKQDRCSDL
Numbers only, as −log10 of the molar value.

- compound: "COc1cc(O)c2c(c1)C1=C(c3c(O)c(O)cc(C)c3-c3cc(OC)cc(O)c3C(=O)O)C(=O)C(O)=CC1(C)OC2=O (configuration not stated)"
  reading: 4.81

IN: Entry COc1cc(O)c(C(C)=O)c(-c2c(C)cc(O)c3oc4c(O)cc(C)c(-c5cc(OC)cc(O)c5C(=O)O)c4c23)c1 : reported pIC50 = ?
OUT: 4.17

====

- targetEntity: UniProtKB P22303
- assayNotes: Inhibition of AChE (unknown origin) using acetylthiocholine iodide as substrate after 5 mins by spectrophotometric analysis
Calls of active or inactive are those of the source. The rule behind the calls is not given here.
observable: inhibition

- molecule: "COc1cc(O)c2c(c1)C1=CC3=Nc4cc(C)c(-c5cc(OC)cc(O)c5C(=O)O)cc4O[C@]3(O)C[C@]1(C)OC2=O"
  inhibition: "inactive"
- molecule: "COc1cc(O)c2c(c1)C1=C(C3=C4c5cc(OC)cc(O)c5C(=O)OC4(C)C=C(O)C3=O)C(=O)C(O)=CC1(C)OC2=O (stereo in doubt; (+)-6)"
  inhibition: "inactive"
- molecule: "COc1cc(O)c(C(=O)O)c(-c2c(C)cc(O)c(O)c2-c2c(O)c(O)cc(C)c2-c2cc(OC)cc(O)c2C(=O)O)c1"
  inhibition: "inactive"
- molecule: "COc1cc(O)c(C(=O)O)c(-c2c(C)cc(O)c3oc4c(c23)C2(OC(=O)c3c(O)cc(OC)cc32)C(C)=CC4=O)c1 (stereo in doubt; (-)-2)"
  inhibition: "inactive"
- molecule: "COc1cc(O)c2c(c1)C1=CC3=Nc4cc(C)c(-c5cc(OC)cc(O)c5C(=O)O)cc4O[C@@]3(O)C[C@@]1(C)OC2=O"
  inhibition: "inactive"
- molecule: "COc1cc(O)c2c(c1)C1=C(c3c(O)c(O)cc(C)c3-c3cc(OC)cc(O)c3C(=O)O)C(=O)C(O)=CC1(C)OC2=O (stereo not drawn)"
  inhibition: "inactive"
- molecule: "COc1cc(O)c2c(c1)C1=C(C3=C4c5cc(OC)cc(O)c5C(=O)OC4(C)C=C(O)C3=O)C(=O)C(O)=CC1(C)OC2=O (stereo in doubt; (-)-6)"
  inhibition: "inactive"

Now for a further molecule.
IN: Entry COc1cc(O)c(C(=O)O)c(-c2c(C)cc(O)c3oc4c(c23)C2(OC(=O)c3c(O)cc(OC)cc32)C(C)=CC4=O)c1 (stereo in doubt; (+)-2) : reported inhibition = ?
OUT: inactive
